Source: patent US20080167314A1

Parameter melting point: see the listing below.

compound	melting point
Cc1cccc(-c2nc3cccnn3c2-c2ccnc(N(C(=O)C3CC3)C(=O)C3CC3)c2)c1 [Example Compound 23-1]	173 to 175 °C
Cc1cc(-c2nc3cccnn3c2-c2ccnc(NC(=O)NCC(C)C)c2)ccc1F [Example 51-3]	213 to 214 °C

### Prompt What does the record list as melting point for Cc1cncc(C(=O)Nc2cc(-c3c(-c4ccc(F)c(C)c4)nc4cccnn34)ccn2)c1 [Example 42-30] ?
### Response 238 to 240 °C

### Prompt What does the record list as melting point for Cc1cccc(NC(=O)Nc2cc(-c3c(-c4cccc(C)c4)nc4cccnn34)ccn2)c1 [Example Compound 27-2] ?
### Response 202 to 203 °C

### Prompt What does the record list as melting point for CCC(CC)NC(=O)Nc1cc(-c2c(-c3ccc(F)c(C)c3)nc3cccnn23)ccn1 [Example 51-4] ?
### Response 187 to 188 °C

### Prompt What does the record list as melting point for Cc1cccc(-c2nc3cccnn3c2-c2ccnc(NC(=O)c3ccncc3)n2)c1 [Example 44-3] ?
### Response 181 to 182 °C

### Prompt What does the record list as melting point for CCN(CC)C(=O)Nc1cc(-c2c(-c3cccc(C)c3)nc3cccnn23)ccn1 [Example Compound 32-1] ?
### Response 166 to 167 °C

### Prompt What does the record list as melting point for COc1ccc(C(=O)Nc2cc(-c3c(-c4ccc(F)c(C)c4)nc4ccc(N(C)C)nn34)ccn2)cc1 [Example 45-2] ?
### Response 224 to 225 °C

### Prompt What does the record list as melting point for COc1ccc(CC(=O)Nc2cc(-c3c(-c4cccc(C)c4)nc4cccnn34)ccn2)cc1 [Example Compound 20-12] ?
### Response 213 to 214 °C

### Prompt What does the record list as melting point for CCNC(=O)Nc1cc(-c2c(-c3ccc(F)c(C)c3)nc3cc(C(C)(C)C)c(Cl)nn23)ccn1 [Example 48-2] ?
### Response 246 to 247 °C

### Prompt What does the record list as melting point for Cc1ccc(Nc2cc(-c3c(-c4cccc(C)c4)nc4cccnn34)ccn2)cc1 [Example Compound 6-8] ?
### Response 213 to 214 °C
